TGI reference
tested on: T-47D breast; assay: NCI tumour cell line growth inhibition, 48 h

Solved entries:
compound	TGI
O=[N+]([O-])c1cccc(N=C2c3ccccc3CN2c2cccc([N+](=O)[O-])c2)c1	> 100 µM
COc1ccc(NC(=O)CC(=O)n2nc(C)c(N=Nc3ccc(C)c(C)c3)c2C)cc1	> 100 µM
Cc1cc(C)c(S(=O)(=O)N[C@@H](/C=C(\Br)CO)C(C)C)c(C)c1	68.4 µM
COc1c(Cl)ccc(Cl)c1C(=O)NNC(=O)c1c(Cl)c(Cl)c(Cl)c(Cl)c1-c1nc2ccc(C(=O)c3ccccc3)cc2[nH]1	> 100 µM
O=C1C(C(O)(C(F)(F)Cl)C(F)(F)Cl)CCC1C(O)(C(F)(F)Cl)C(F)(F)Cl (stereo not drawn)	> 10 µM

Task: What TGI value was documented for this compound, "COc1cc(-c2cc(C(=O)N3CCN(C(=O)c4ccccc4NCc4ccco4)CC3)nc3cc(-c4ccccc4)nn23)cc(OC)c1OC" ?
Output: > 100 µM

Task: Queued: "CC(=O)Oc1ccccc1[C@H]1CC(=O)C[C@H](c2ccccc2OC(C)=O)C12C(=O)c1ccccc1C2=O"
Output: > 100 µM

Task: Query O=C(CCCc1c[nH]c2ccccc12)NC1CC(=O)c2c(Br)sc(Br)c21 (stereo not drawn) next
Output: > 100 µM
